# Test system: pregnant Sprague Dawley rats (embryo/fetal development)
# test-conditions: 6 mpk, subcutaneous, once every three days, Gestation Days 6-18, pregnant rats
# Method: Study Summary Rat Embryofetal: […] Compounds were formulated using 100% DMSO mixed in Sterile Water for Injection, resulting in 2% DMSO solution in water. […] Body weights was recorded for all animals on Gestation Days 5 (purpose of randomization), 6, 9, 12, 15, 18, and 20 (scheduled euthanasia). Food consumption by weight was recorded on Gestation Days 6, 9, 12, 15, 18, and 20 (scheduled termination). […]
endpoint-label: Rat Embryofetal @6 mpk

Look over these answered cases.
CO[C@@H]1[C@H](OC(=O)N2CC(CCN3CC(F)(F)C3)C2)CC[C@]2(CO2)[C@H]1[C@@]1(C)O[C@@H]1CC=C(C)C [Example 2]	Negative
CO[C@@H]1[C@H](OC(=O)/C=C/c2ccc(OCCN(C)C)cc2)CC[C@]2(CO2)[C@H]1[C@@]1(C)O[C@@H]1CC=C(C)C [A, reference compound]	Positive
CO[C@@H]1[C@H](OC(=O)N2CC(OC(=O)N3CCN(C)CC3)C2)CC[C@]2(CO2)[C@H]1[C@@]1(C)O[C@@H]1CC=C(C)C [Example 78]	Positive
CO[C@@H]1[C@H](OC(=O)N2CC(CCN3CCOCC3)C2)CC[C@]2(CO2)[C@H]1[C@@]1(C)O[C@@H]1CC=C(C)C [Example 1]	Negative
CNC(=O)OC1CN(C(=O)O[C@@H]2CC[C@]3(CO3)[C@@H]([C@@]3(C)O[C@@H]3CC=C(C)C)[C@@H]2OC)C1 [Example 74]	Negative

Data request: Form: Entry = CCN(CC)CCCC1CN(C(=O)O[C@@H]2CC[C@]3(CO3)[C@@H]([C@@]3(C)O[C@@H]3CC=C(C)C)[C@@H]2OC)C1 [Example 104] | System = pregnant Sprague Dawley rats (embryo/fetal development) | Rat Embryofetal @6 mpk = ____
Data returned: Positive

Data request: Query CO[C@@H]1[C@H](OC(=O)N2CC(OC(=O)N3CCN(CC(F)(F)F)CC3)C2)CC[C@]2(CO2)[C@H]1[C@@]1(C)O[C@@H]1CC=C(C)C [Example 81] next
Data returned: Positive

Data request: One more molecule: CO[C@@H]1[C@H](OC(=O)N2CC(Cc3ccc(C)nc3)C2)CC[C@]2(CO2)[C@H]1[C@@]1(C)O[C@@H]1CC=C(C)C [Example 101]
Data returned: Positive

Data request: Consider next the molecule CCN(CC)CCC1CN(C(=O)O[C@@H]2CC[C@]3(CO3)[C@@H]([C@@]3(C)O[C@@H]3CC=C(C)C)[C@@H]2OC)C1 [Example 103] in the same way.
Data returned: Positive
